Source of measurements: PubChem BioAssay AID2060611

System: 628569-122-R-J1-PDC complex spheroid viability;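 also: spheroids exposed to agents for seven days before readout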
Assay: Anticancer human tumor 628569-122-R-J1-PDC patient-derived head and neck squamous carcinoma cell line growth inhibition [CLK]
Conditions: second compound 0.0316 µM; first compound 0.1 µM; stronger effect = lower value
The threshold is 70%. Values of viability, T/C beneath it are tagged yes; values meeting or exceeding it are tagged no.

Worked cases, answers included:
COMPOUND	ASSIGNED LABEL
CC(=O)O[C@H]1C(=O)[C@@]2(C)[C@H]([C@H](OC(=O)c3ccccc3)[C@]3(O)C[C@H](OC(=O)[C@H](O)[C@@H](NC(=O)c4ccccc4)c4ccccc4)C(C)=C1C3(C)C)[C@]1(OC(C)=O)CO[C@@H]1C[C@@H]2O + CN1CCN(c2cc(C(=O)Nc3cc4cc(-c5cnn(C)c5)ccc4cn3)ccn2)CC1	yes
COc1cccc2c1C(=O)c1c(O)c3c(c(O)c1C2=O)CC(O)(C(=O)CO)CC3OC1CC(N)C(O)C(C)O1 (centres undefined) + CN1CCN(c2cc(C(=O)Nc3cc4cc(-c5cnn(C)c5)ccc4cn3)ccn2)CC1	yes
CCN1CCN(Cc2ccc(Nc3ncc(F)c(-c4cc(F)c5nc(C)n(C(C)C)c5c4)n3)nc2)CC1 + CNC(=O)c1ccc(Nc2nc(OC3CCCC3)c3c(-c4ccc5nc(C)oc5c4)c[nH]c3n2)c(OC)c1	yes
CCc1c2c(nc3ccc(O)cc13)-c1cc3c(c(=O)n1C2)COC(=O)[C@]3(O)CC + CNC(=O)c1ccc(Nc2nc(OC3CCCC3)c3c(-c4ccc5nc(C)oc5c4)c[nH]c3n2)c(OC)c1	yes
CCN1CCN(Cc2ccc(Nc3ncc(F)c(-c4cc(F)c5nc(C)n(C(C)C)c5c4)n3)nc2)CC1 + CN1CCN(c2cc(C(=O)Nc3cc4cc(-c5cnn(C)c5)ccc4cn3)ccn2)CC1	no

Ask: Problem: For the compound CC1(C)CCC(CN2CCN(c3ccc(C(=O)NS(=O)(=O)c4ccc(NCC5CCOCC5)c([N+](=O)[O-])c4)c(Oc4cnc5[nH]ccc5c4)c3)CC2)=C(c2ccc(Cl)cc2)C1 + CN1CCN(c2cc(C(=O)Nc3cc4cc(-c5cnn(C)c5)ccc4cn3)ccn2)CC1 , is viability, T/C under 70%?
Result: no

Ask: Hi there! Is viability, T/C for COC1C=CCC(C)C(C)S(=O)(=O)NC(=O)c2ccc3c(c2)N(CC2CCC21)CC1(CCCc2cc(Cl)ccc21)CO3 (centres undefined) + CNC(=O)c1ccc(Nc2nc(OC3CCCC3)c3c(-c4ccc5nc(C)oc5c4)c[nH]c3n2)c(OC)c1 below 70%, do you know?
Result: no

Ask: Take the compound COc1cccc2c1C(=O)c1c(O)c3c(c(O)c1C2=O)CC(O)(C(=O)CO)CC3OC1CC(N)C(O)C(C)O1 (centres undefined) + CNC(=O)c1ccc(Nc2nc(OC3CCCC3)c3c(-c4ccc5nc(C)oc5c4)c[nH]c3n2)c(OC)c1 and say whether its viability, T/C is less than 70%.
Result: yes

Ask: Consider the compound CC1COCCN1c1cc(C2(S(C)(=N)=O)CC2)nc(-c2ccnc3[nH]ccc23)n1 (centres undefined) + CN1CCN(c2cc(C(=O)Nc3cc4cc(-c5cnn(C)c5)ccc4cn3)ccn2)CC1 . Is its viability, T/C strictly less than 70%?
Result: no

Ask: A record lists Cn1ncnc1[C@H]1c2n[nH]c(=O)c3cc(F)cc(c23)N[C@@H]1c1ccc(F)cc1 + CN1CCN(c2cc(C(=O)Nc3cc4cc(-c5cnn(C)c5)ccc4cn3)ccn2)CC1 . Is its viability, T/C below 70%?
Result: yes

Ask: Regarding Nc1ccn(C2OC(CO)C(O)C2(F)F)c(=O)n1 (centres undefined) + CN1CCN(c2cc(C(=O)Nc3cc4cc(-c5cnn(C)c5)ccc4cn3)ccn2)CC1 , kindly confirm whether its viability, T/C is beneath 70%.
Result: yes

Ask: is_below(viability, T/C, 70%) for COc1c(OCCCN2CCOCC2)ccc2c3n(c(=NC(=O)c4cnc(N)nc4)nc12)CCN3 + CNC(=O)c1ccc(Nc2nc(OC3CCCC3)c3c(-c4ccc5nc(C)oc5c4)c[nH]c3n2)c(OC)c1 ?
Result: yes
